Recorded I90 for the following compounds
Tested on: Pyricularia oryzae
Protocol description: Fungicidal activity against Magnaporthe oryzae infected in 24 hr compound pre-treated Oryza sativa cv. Chukyoasahi assessed as disease control measured after 10 days
Type: functional

# annotated cases, reported I90 shown
CC(C)COc1c(C(F)(F)F)cc([N+](=O)[O-])c(Nc2ncc(C(F)(F)F)cc2Cl)c1[N+](=O)[O-] :: >500 ppm
COc1c(C(F)(F)F)cc([N+](=O)[O-])c(Nc2ncc(C(F)(F)F)cc2Cl)c1[N+](=O)[O-] :: <16 ppm

Now for a further compound.
For record `CSc1c(C(F)(F)F)cc([N+](=O)[O-])c(Nc2ncc(C(F)(F)F)cc2Cl)c1[N+](=O)[O-]` the listed I90 is <16 ppm
